Give MIC Enterococcus faecalis (GC 6189) for every item shown.
Tested on: Enterococcus sp.
Assay: in vitro antibacterial evaluation, MIC by broth dilution
Type: cell-based
Settings: broth dilution, inoculum 5×10^5 CFU/mL, 18 hours at 35° C.; strain GC 6189
Text: Methods for in vitro Antibacterial Evaluation (Table 1) […]
One number for each entry, in µg/mL.

Here is how some compounds turned out for MIC Enterococcus faecalis (GC 6189).
>>> test_result("CC(c1ccccc1)C1NC(=O)CNC(=O)C(CO)NC(=O)C(C(O)C2CNC(=N)N2C2OC(CO)C(O)C(O)C2O)NC(=O)C(C(O)C2CNC(=N)N2)NC(=O)C(Cc2ccc(OC3OC(CO)C(OC4OC5COC6(CC7CCC6(C)C7(C)C)OC5C(O)C4O)C(O)C3O)cc2)NC1=O (centres unmarked) [Example 214]")
2
>>> test_result("CC(c1ccccc1)C1NC(=O)CNC(=O)C(CO)NC(=O)C(CC2CNC(=N)N2C2OC(CO)C(O)C(O)C2O)NC(=O)C(CC2CNC(=N)N2)NC(=O)C(Cc2ccc(OC3OC(CO)C(OC4OC5COC(c6ccc(OCc7ccccc7)cc6)OC5C(O)C4O)C(O)C3O)cc2)NC1=O (centres unmarked) [Example 191]")
8
>>> test_result("CC(C)=CCCC(C)=CCOc1ccc(C2OCC3OC(OC4C(CO)OC(Oc5ccc(CC6NC(=O)C(C(C)c7ccccc7)NC(=O)CNC(=O)C(CO)NC(=O)C(C(O)C7CNC(=N)N7C7OC(CO)C(O)C(O)C7O)NC(=O)C(C(O)C7CNC(=N)N7)NC6=O)cc5)C(O)C4O)C(O)C(O)C3O2)cc1 (centres unmarked) [Example 183]")
2

Data request: // lookup MIC Enterococcus faecalis (GC 6189) for CC(c1ccccc1)C1NC(=O)CNC(=O)C(CO)NC(=O)C(C(O)C2CNC(=N)N2C2OC(CO)C(O)C(O)C2O)NC(=O)C(C(O)C2CNC(=N)N2)NC(=O)C(Cc2ccc(OC3OC(CO)C(OC4OC(CO)C(O)C(OCc5ccc(OCc6ccccc6)cc5)C4O)C(O)C3O)cc2)NC1=O (centres unmarked) [Example 231c]
Data returned: 4
